Recorded values, source the RNAGym collection of RNA variant scans (doi:10.7554/elife.90254).

B1: LINE1-full (parent)
chain: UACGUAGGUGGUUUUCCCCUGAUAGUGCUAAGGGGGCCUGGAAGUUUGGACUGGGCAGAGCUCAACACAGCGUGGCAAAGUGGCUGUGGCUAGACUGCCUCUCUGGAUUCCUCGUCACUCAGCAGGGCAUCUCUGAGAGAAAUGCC

Variants of: B1
Assay: self-cleavage, relative activity (ratio to wild type); higher = more cleavage; in vitro, sequencing; the parent is a self-cleaving ribozyme
Heads up, the class ranges for self-cleavage are group A: < 0.3; group B: ≥ 0.3 and < 1; group C: ≥ 1

Q) Band assignment needed for UACGUAGGUGGGUUUCCCCUGAUAGUGCUAAGGGGGCCUGGAAGUUUGGACUGGGCAGAGCUCAACACAGCGUGGCAAAGUGGCUGUGGCUAGACUGCCUCUCUGGAUUCCUCGGCACUCAGCAGGGCAUCUCUGAGAGAAAUGCC [U12G U115G] please.
A) group A

Q) Band assignment needed for UACGUAGGAGGUUUUCCCCUGAUAGUGCUAAGGGGGCCUGGAAGUUUGGACUGGGCAGAGCUCAACACAGCGUGGCAAAGUGGCUGUGGCUAGACUGCCUCUCUGGAUUCCUCGUCACUCAGCAGGGCAUCUCUGGGAGAAAUGCC [U9A A136G] please.
A) group C

Q) Band assignment needed for UACGUAGGUGGUUUUCCCCUGAUAGUGCUAAGGGGGCCUGGAAGUUUGGACUGGGCAGAGCUCGACACAGCGUGGCAAAGUGGCUGUGGCUAGACUGCCUCUCUGGAUUCCUCGUCACUCCGCAGGGCAUCUCUGAGAGAAAUGCC [A64G A121C] please.
A) group A

Q) Band assignment needed for UACGUAGGUGGUUCUCCCCUGAUAGUGCUAAGGAGGCCUGGAAGUUUGGACUGGGCAGAGCUCAACACAGCGUGGCAAAGUGGCUGUGGCUAGACUGCCUCUCUGGAUUCCUCGUCACUCAGCAGGGCAUCUCUGAGAGAAAUGCC [U14C G34A] please.
A) group B

Q) Band assignment needed for UACGUAGGUGGUUUUCCCCUGGUAGUGCUAAGGGGGCCUGGAAGUUUGGACUGGGCGGAGCUCAACACAGCGUGGCAAAGUGGCUGUGGCUAGACUGCCUCUCUGGAUUCCUCGUCACUCAGCAGGGCAUCUCUGAGAGAAAUGCC [A22G A57G] please.
A) group B

Q) Band assignment needed for UACGUAGGUGGUUUUCCCCUGAUAGUGCUAAGGGGGCCUGGAGGUUUGGACUGGGCAGAGCUCAACACAGCGUGGCAAAGUGGCUGCGGCUAGACUGCCUCUCUGGAUUCCUCGUCACUCAGCAGGGCAUCUCUGAGAGAAAUGCC [A43G U87C] please.
A) group B

Q) Band assignment needed for UACGUAGGUGGUUUUCCCCUGAUAGUGCUAAGGGGGCCUGGAAGUUAGGACUGGGCAGAGCUCAACACAGCGUGGCAAAGUGGCUGUGGCUAGACUGCCUCUCUGGAUUCCUCGUCACUCAGCAGGGCAUCUCUGGGAGAAAUGCC [U47A A136G] please.
A) group C

Q) Band assignment needed for UACGUAGGUGGUUUUCCCCUGAUAGUGCUAAGGGGGCCUGGAAGUUUGGACUGGGCAGAGCUCAACACAGCGUGGCAAAGUGGCUGCGGCUAGACUGCCUCUCUGGAUUCCUCGUCACUCAGCAGGGCAUCACUGAGAGAAAUGCC [U87C U132A] please.
A) group B

Q) Band assignment needed for UACGUAGGUGGUUUUCCCCCGAUAGUGCUAAGGGGGCCUGGAAGUUUGGACUGGGCAGAGCUCAACACAGCGUGGCAAAGUGGCUGUGGCUAGACUGCCUCUCUGGAUUCCUCGUCUCUCAGCAGGGCAUCUCUGAGAGAAAUGCC [U20C A117U] please.
A) group C

Q) Band assignment needed for UACGUAGGUGGUUUUCCCCUGAUAGUGCUAAGGGGGCCUGGAAGUUUGGACUGGGCAGAGCUCAACACAGCGUGGCAAAGUGGCUGUGGCUAGACUGCCUCUCUGGAUUUCUCGUCACCCAGCAGGGCAUCUCUGAGAGAAAUGCC [C110U U119C] please.
A) group C

Q) Band assignment needed for UACGUAGGUGGUUUUCCCCUGAUAGUGCUAAGGGGGCCUGGAAGCUUGGACUGGGCAGAGCUCAACACAGCGUGGCAAAGUGGCUGUGGCUAGACUGCCCCUCUGGAUUCCUCGUCACUCAGCAGGGCAUCUCUGAGAGAAAUGCC [U45C U100C] please.
A) group C

Q) Band assignment needed for UACGUAGGUGGUUUUCCCCUGAUAGUGCUAAGGGGGCCUGGAAGUUUGGACCGGGCAGAGCUCAACACAGCGUGGCAAAGUGGCUGUGGCUAGACUGCCUCUCUGGAUUCCUCGUUACUCAGCAGGGCAUCUCUGAGAGAAAUGCC [U52C C116U] please.
A) group C

Q) Band assignment needed for UACGUAGGUGGUUUUCCCCUGAUAGUGCUAAGGGGGCCUGGAAGUUUGGACUGGGCAGAGAUCAACACAGCGUGGCAAAGUGGCUGUGGCUAGACUGCCUCUCUGGAUUCCUCGUCACUCAGUAGGGCAUCUCUGAGAGAAAUGCC [C61A C123U] please.
A) group A

Q) Band assignment needed for UACUUAGGUGGUUUUCCCCUGAUAGUGCUAAGGGGGCCUGGAAGUUUGGACUGGGCAGAGCUCAACACGGCGUGGCAAAGUGGCUGUGGCUAGACUGCCUCUCUGGAUUCCUCGUCACUCAGCAGGGCAUCUCUGAGAGAAAUGCC [G4U A69G] please.
A) group B

Q) Band assignment needed for UACGUAGGUGGUUUUCCCCUGAUAGUGCUAAGGGGGCCUGGAAGUUUGGACUGGGCAGAGCUCAACACAGCGUGGCAAAGUGGCUGUGGCUAGACUGCCUCUCUGGAUGCCUCGUCACUCAGCAGGACAUCUCUGAGAGAAAUGCC [U109G G127A] please.
A) group C

Q) Band assignment needed for UACGUAGGUGGUUUUCCCCUGAUAGUGCUAAGGGGGCCUGGAAGUUUGGACUGGGCAGAGCUCAACACAGCGUGGCAAAGUGGCUGUGGCUAGACCGCCACUCUGGAUUCCUCGUCACUCAGCAGGGCAUCUCUGAGAGAAAUGCC [U96C U100A] please.
A) group A

Q) Band assignment needed for UACGUAGGUGGUUUUCCCCUGAUAGUGCUAAGGGGGCCUGGAAGUUUGGACUGUGCAGAGCUCAGCACAGCGUGGCAAAGUGGCUGUGGCUAGACUGCCUCUCUGGAUUCCUCGUCACUCAGCAGGGCAUCUCUGAGAGAAAUGCC [G54U A65G] please.
A) group A

Q) Band assignment needed for UACGUAGGUGGUUUUCCCCUGAUAGUGCUAAGGGGGCCUGGAGGUUUGGACUGGGCAGAGCUCAACACAGCGUGGCAAAGUGGCUGUGGCUAGACUGCCUCUCUGGAUUCCUCGUCACUCAGCAGAGCAUCUCUGAGAGAAAUGCC [A43G G126A] please.
A) group C

Q) Band assignment needed for UACGUAGGUGGUUUUCCCCUGAUAGUGCUAAGGGGGCCCGGAAGUUUGGACUGGGCAGAGCUCAACACAGCGUGGCAAAGUGACUGUGGCUAGACUGCCUCUCUGGAUUCCUCGUCACUCAGCAGGGCAUCUCUGAGAGAAAUGCC [U39C G83A] please.
A) group A

Q) Band assignment needed for UACGUAGGUGGUUUUCCCCUGAUAGUGCUAAGGGGGCCUGGAAGUUUGGACUGGGCAGAGCUCAGCACAGCGUGGCAAAGUGGCUGUGGCUAGACUGCCUCUCUGGAUUCCUCGUCACUCAGCAGGGCAUCUCUGAGGGAAAUGCC [A65G A138G] please.
A) group A
